Overview of recorded reverse-splicing fitness for various variants
B1: Azoarcus group I ribozyme (parent)
chain: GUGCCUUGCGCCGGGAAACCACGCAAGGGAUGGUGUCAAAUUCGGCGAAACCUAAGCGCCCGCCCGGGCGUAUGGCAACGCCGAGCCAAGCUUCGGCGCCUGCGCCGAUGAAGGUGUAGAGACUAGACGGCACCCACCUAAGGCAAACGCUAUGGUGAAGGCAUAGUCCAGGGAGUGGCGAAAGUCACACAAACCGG

Variants of: B1
Assay: reverse-splicing fitness (ratio to wild type); higher = more active; in vitro selection; Mg2+ level not given

The following variants have reported results that may help.
>  <mutantLabel>
C82A A111U A120U A145U C150U C169A U176G

>  <reverse-splicing fitness>
0.00243

$$$$
>  <mutantLabel>
C82A A145G C150G C169A U176A

>  <reverse-splicing fitness>
0.015

$$$$
>  <mutantLabel>
C82A A111U A120C A145U C150G C169A U176G

>  <reverse-splicing fitness>
0.00766

$$$$
>  <mutantLabel>
C82A A111C A120G C150G C169A

>  <reverse-splicing fitness>
0.0097

$$$$
>  <mutantLabel>
C82A A120C A145G C150G C169U U176A

>  <reverse-splicing fitness>
0.0135

$$$$

Request: Name the recorded reverse-splicing fitness for C82U A111C A145U .
Response: 0.246

Request: Fill in: reverse-splicing fitness of C82A A111U A120C A145C C150U C169A U176A is ___
Response: 0.0182

Request: Look up reverse-splicing fitness for this variant: C82A A111G A120U A145G C150G
Response: 0.00855

Request: Need reverse-splicing fitness of C82U A120U A145U C169U U176G , thanks.
Response: 0.00161

Request: Requested field: reverse-splicing fitness. Item: C82U A111G A120C A145G C150A C169U U176G
Response: 0.00508

Request: Requested field: reverse-splicing fitness. Item: C82G A145G C150G C169A U176A
Response: 0.0146
